Just for reference, ChEMBL document CHEMBL4028886 is where these values come from.

- TESTED_TARGET: UniProt P23975
- Sequence (P23975 whole entry): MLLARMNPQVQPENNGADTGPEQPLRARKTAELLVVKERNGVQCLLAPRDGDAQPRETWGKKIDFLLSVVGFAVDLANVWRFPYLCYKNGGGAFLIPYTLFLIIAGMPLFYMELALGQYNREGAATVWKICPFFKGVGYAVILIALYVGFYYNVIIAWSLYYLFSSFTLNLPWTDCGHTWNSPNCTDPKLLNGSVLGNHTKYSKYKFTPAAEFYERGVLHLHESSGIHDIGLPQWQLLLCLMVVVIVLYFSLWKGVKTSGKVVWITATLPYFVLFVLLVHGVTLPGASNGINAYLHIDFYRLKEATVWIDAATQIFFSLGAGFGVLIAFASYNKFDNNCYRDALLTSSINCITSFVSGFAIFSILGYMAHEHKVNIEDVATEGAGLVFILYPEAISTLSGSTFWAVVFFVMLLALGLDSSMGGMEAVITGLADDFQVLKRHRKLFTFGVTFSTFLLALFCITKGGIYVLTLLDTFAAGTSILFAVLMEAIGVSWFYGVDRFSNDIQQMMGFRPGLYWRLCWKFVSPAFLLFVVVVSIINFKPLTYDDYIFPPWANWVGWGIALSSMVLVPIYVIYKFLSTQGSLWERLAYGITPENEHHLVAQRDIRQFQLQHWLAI
- ASSAY_INFO: Inhibition of re-uptake of [3H]MPP+ at human NET expressed in HEK293 cells preincubated for 5 mins followed by […] addition measured after 3 min by liquid scintillation counting
- Assay type: cell-based
- CONDITION_SET: read-out: IC50
PROPERTY_NAME: log10(IC50) (log10 of the value in µM)
// do not treat as linear: log10 of IC50, unit µM

| COMPOUND | QUANTITATIVE_RESULT |
| --- | --- |
| NC(=O)C[S+]([O-])C(c1ccccc1)c1ccccc1 (stereo unspecified) [MODAFINIL] | 2.45 |
| [O-][S+](Cc1ccsc1)C(c1ccccc1)c1ccccc1 (stereo unspecified) | 1.76 |
| COC1NN=C(C[S+]([O-])C(c2ccccc2)c2ccccc2)S1 (stereo unspecified) | 2.16 |

[in] Which log10(IC50) value is on record for [O-][S+](Cc1ccc(Cl)s1)C(c1ccccc1)c1ccccc1 (stereo unspecified) ?
[out] 1.84

[in] Which log10(IC50) value is on record for Cc1ccc(C(c2ccccc2)[S+]([O-])Cc2cccs2)cc1 (stereo unspecified) ?
[out] 2.18

[in] Which log10(IC50) value is on record for [O-][S+](Cc1sccc1Cl)C(c1ccccc1)c1ccccc1 (stereo unspecified) ?
[out] 2.27

[in] Which log10(IC50) value is on record for [O-][S+](Cc1ccsc1Br)C(c1ccccc1)c1ccccc1 (stereo unspecified) ?
[out] 2.16

[in] Which log10(IC50) value is on record for CC(C)c1nnsc1C[S+]([O-])C(c1ccccc1)c1ccccc1 (stereo unspecified) ?
[out] 1.48

[in] Which log10(IC50) value is on record for Cc1cc(C[S+]([O-])C(c2ccccc2)c2ccccc2)nc(C)n1 (stereo unspecified) ?
[out] 2.89

[in] Which log10(IC50) value is on record for [O-][S+](Cc1cccs1)C(c1ccc(F)cc1)c1ccc(F)cc1 (stereo unspecified) ?
[out] 2.05

[in] Which log10(IC50) value is on record for [O-][S+](Cc1csc(Br)c1)C(c1ccccc1)c1ccccc1 (stereo unspecified) ?
[out] 1.83
